Target System: Protease (Human immunodeficiency virus 1)
Assay Name: Inhibition of Human immunodeficiency virus 1 protease using Abz-Thr-Ile-Nle-Phe(p-NO2)-Gln-Arg-NH2 as substrate by fluorescence analysis
pIC50: −log10 of the molar value.
Category key, based on recorded pIC50: low range (below 6), mid range (6 to below 8), high range (8 or more)

Incoming: Assign a bin to `Cc1cccc(C)c1OCC(=O)N[C@@H](Cc1ccccc1)[C@H](O)[C@@H](O)[C@@H]1CCCCN1C(=O)COc1c(C)cccc1C`
Outgoing: mid range

Incoming: Please give the result for `Cc1cccc(C)c1OCC(=O)N[C@@H](Cc1ccccc1)[C@@H](O)[C@H](O)[C@H]1CCCN1C(=O)COc1c(C)cccc1C` too.
Outgoing: low range

Incoming: Please give the result for `Cc1cccc(C)c1OCC(=O)N1CCC[C@H]1[C@H](O)[C@@H](O)[C@@H]1CCCN1C(=O)COc1c(C)cccc1C` too.
Outgoing: low range

* * *

Assay Name: Cytotoxicity against human MT2 cells assessed as maximum non-toxic concentration after 72 hrs by MTT assay
Type: cell-based
Experimental Setup: MT2 cells, read-out: MNCC
Observation Type: MNTC at 72 h (nM)
Could you give me the number in nM? Just the number is fine.

chemical_string=CC(=O)N[C@@H](Cc1c[nH]c2ccccc12)C(=O)N[C@H](C(=O)N[C@@H](Cc1ccccc1)[C@H](O)[C@@H](O)[C@@H]1CCCN1C(=O)[C@@H](NC(=O)[C@H](Cc1c[nH]c2ccccc12)NC(C)=O)C(C)C)C(C)C observation_type="MNTC at 72 h" number=10

Incoming: Recorded MNTC at 72 h for `Cc1cccc(C)c1OCC(=O)N[C@@H](Cc1ccccc1)[C@H](O)[C@@H](O)[C@@H]1CCCN1C(=O)COc1c(C)cccc1C` , please?
Outgoing: 0.1

* * *

Assay Name: Ratio of CC50 for human MT2 cells after 96 hrs to CC50 for human MT2 cells after 72 hrs
Assay type: cell-based
Observation Type: selectivity ratio
Form field (numeric): enter value without unit.

Incoming: Recorded selectivity ratio for `CC(=O)N[C@@H](Cc1c[nH]c2ccccc12)C(=O)N[C@H](C(=O)N[C@@H](Cc1ccccc1)[C@H](O)[C@@H](O)[C@@H]1CCCN1C(=O)[C@@H](NC(=O)[C@H](Cc1c[nH]c2ccccc12)NC(C)=O)C(C)C)C(C)C` , please?
Outgoing: 5000

* * *

Entries and their MNTC at 96 h
Assay Name: Cytotoxicity against human MT2 cells assessed as maximum non-toxic concentration after 96 hrs by MTT assay
Format: cell-based
Experimental Setup: MT2 cells, read-out: MNCC
Could you give me the number in nM? Just the number is fine.

chemical_string=Cc1cccc(C)c1OCC(=O)N[C@@H](Cc1ccccc1)[C@H](O)[C@@H](O)[C@@H]1CCCN1C(=O)COc1c(C)cccc1C number=0.1

// switching to the query compound
Incoming: Recorded MNTC at 96 h for `CC(=O)N[C@@H](Cc1c[nH]c2ccccc12)C(=O)N[C@H](C(=O)N[C@@H](Cc1ccccc1)[C@H](O)[C@@H](O)[C@@H]1CCCN1C(=O)[C@@H](NC(=O)[C@H](Cc1c[nH]c2ccccc12)NC(C)=O)C(C)C)C(C)C` , please?
Outgoing: 0.3

* * *

Target System: Protease (Human immunodeficiency virus 1, UniProt Q9YQ12)
Sequence (Q9YQ12 whole entry): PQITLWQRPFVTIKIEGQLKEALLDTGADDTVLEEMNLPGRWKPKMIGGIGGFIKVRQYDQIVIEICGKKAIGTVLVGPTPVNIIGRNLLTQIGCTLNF
Assay Name: Inhibition of Human immunodeficiency virus 1 protease using Abz-Thr-Ile-Nle-Phe(p-NO2)-Gln-Arg-NH2 as substrate by fluorescence analysis
Category key, based on recorded IC50: lowest = under 10 nM, middle = from 10 nM up to 80 nM, highest = 80 nM and over

Please review the entries below; each comes with its answer.
chemical_string=Cc1cccc(C)c1OCC(=O)N[C@@H](Cc1ccccc1)[C@H](O)[C@@H](O)[C@H](Cc1ccccc1)NC(=O)COc1c(C)cccc1C target_system="Protease (Human immunodeficiency virus 1, UniProt Q9YQ12)" answer_label=middle
chemical_string=Cc1cccc(C)c1OCC(=O)N[C@@H](Cc1ccccc1)[C@H](O)[C@@H](O)[C@@H]1CCCN1C(=O)COc1ccccc1 target_system="Protease (Human immunodeficiency virus 1, UniProt Q9YQ12)" answer_label=highest
chemical_string=CC[C@H](C)[C@H](NC(=O)[C@@H](NC(C)=O)C(C)C)C(=O)N1CCC[C@H]1[C@H](O)[C@@H](O)[C@H](Cc1ccccc1)NC(=O)[C@H](CC(N)=O)NC(=O)[C@H](CC(C)C)NC(=O)[C@H](CO)NC(C)=O target_system="Protease (Human immunodeficiency virus 1, UniProt Q9YQ12)" answer_label=lowest

Incoming: Assign a bin to `CC(=O)c1ccc(OCC(=O)N[C@@H](Cc2ccccc2)[C@H](O)[C@@H](O)[C@@H]2CCCN2C(=O)COc2ccc(C(C)=O)cc2)cc1`
Outgoing: highest

Incoming: Please give the result for `CC[C@H](NC(=O)COc1ccccc1C)[C@H](O)[C@@H](O)[C@@H]1CCCN1C(=O)COc1ccccc1C` too.
Outgoing: highest

Incoming: Please give the result for `CC(=O)N[C@@H](Cc1c[nH]c2ccccc12)C(=O)N[C@H](C(=O)N1CCC[C@H]1[C@H](O)[C@@H](O)[C@H](Cc1ccccc1)NC(=O)COc1c(C)cccc1C)C(C)C` too.
Outgoing: middle
